A short record of pIC50 observed with ROCK2 (Homo sapiens (Human), UniProt O75116) follows.
Sequence (O75116 whole entry, species assumed): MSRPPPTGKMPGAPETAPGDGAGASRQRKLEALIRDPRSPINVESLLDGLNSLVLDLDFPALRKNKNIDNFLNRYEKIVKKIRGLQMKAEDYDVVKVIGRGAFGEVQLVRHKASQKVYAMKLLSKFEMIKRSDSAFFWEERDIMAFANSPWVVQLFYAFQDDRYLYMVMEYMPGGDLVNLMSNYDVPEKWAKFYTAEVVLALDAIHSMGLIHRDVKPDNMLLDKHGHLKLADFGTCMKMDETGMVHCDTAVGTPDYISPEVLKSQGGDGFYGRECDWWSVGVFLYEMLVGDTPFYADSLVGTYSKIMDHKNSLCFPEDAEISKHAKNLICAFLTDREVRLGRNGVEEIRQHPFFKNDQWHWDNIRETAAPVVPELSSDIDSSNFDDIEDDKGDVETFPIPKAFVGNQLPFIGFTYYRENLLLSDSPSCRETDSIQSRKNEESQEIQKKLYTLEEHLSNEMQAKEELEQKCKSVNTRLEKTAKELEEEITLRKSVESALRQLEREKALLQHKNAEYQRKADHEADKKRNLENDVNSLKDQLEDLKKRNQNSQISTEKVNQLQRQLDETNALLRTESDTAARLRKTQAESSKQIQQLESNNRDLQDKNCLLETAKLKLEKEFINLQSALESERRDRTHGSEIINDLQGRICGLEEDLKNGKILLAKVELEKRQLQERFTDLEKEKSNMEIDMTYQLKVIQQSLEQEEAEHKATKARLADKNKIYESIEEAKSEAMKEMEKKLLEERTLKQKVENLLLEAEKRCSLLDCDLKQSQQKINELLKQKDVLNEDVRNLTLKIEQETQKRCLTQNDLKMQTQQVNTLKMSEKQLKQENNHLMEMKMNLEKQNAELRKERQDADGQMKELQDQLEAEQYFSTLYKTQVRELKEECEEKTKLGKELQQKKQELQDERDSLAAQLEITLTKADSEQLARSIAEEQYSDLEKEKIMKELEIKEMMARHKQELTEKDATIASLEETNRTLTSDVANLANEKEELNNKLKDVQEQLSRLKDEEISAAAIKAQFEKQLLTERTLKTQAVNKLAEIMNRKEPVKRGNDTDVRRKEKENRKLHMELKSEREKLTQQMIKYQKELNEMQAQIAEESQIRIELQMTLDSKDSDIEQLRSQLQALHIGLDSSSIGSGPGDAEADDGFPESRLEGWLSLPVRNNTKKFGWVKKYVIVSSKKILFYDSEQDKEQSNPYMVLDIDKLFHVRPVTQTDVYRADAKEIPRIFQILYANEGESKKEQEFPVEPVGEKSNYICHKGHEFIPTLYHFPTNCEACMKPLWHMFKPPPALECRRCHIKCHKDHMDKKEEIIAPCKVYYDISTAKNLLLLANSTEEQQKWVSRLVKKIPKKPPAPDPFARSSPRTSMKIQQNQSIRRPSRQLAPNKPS
pIC50 (log units): -log10 of the concentration in mol/L.

Prompt line: GET /values?readout=pIC50&item= [H][C@]1(Oc2ncccc2C(N)=O)C[C@]2(C[C@@H](Nc3nccc(N4CCC(F)(F)C4)n3)C2)C1 (stereo partly drawn) [Example 38]
Response line: 6.41

Prompt line: And NC(=O)c1cccnc1O[C@H]1C[C@@]2(C[C@H](Nc3nc(-c4ccc(F)cc4)cs3)C2)C1 (stereo partly drawn) [Example 12] ?
Response line: 6.07

***
Prompt line: Form field: reported pIC50 of NC(=O)c1cccnc1O[C@H]1C[C@@]2(C[C@H](Nc3nnc(-c4ccc(F)c(F)c4F)o3)C2)C1 (stereo partly drawn) [Example 19]
Response line: 6.54

###

Record set of IC50 for target or system ROCK2 (Homo sapiens (Human), UniProt O75116).

Prompt line: What IC50 appears in the records for this compound with ROCK2 (Homo sapiens (Human), UniProt O75116)? NC(=O)c1cccnc1O[C@H]1C[C@@]2(C[C@H](Nc3ncc4cc(F)ccc4n3)C2)C1 (stereo partly drawn)
Response line: 141 nM

Prompt line: Record: [H][C@]1(Oc2ncccc2C(N)=O)C[C@]2(C[C@@H](Nc3ccnc(N4CCC(C(F)(F)F)CC4)n3)C2)C1 (stereo partly drawn)
Response line: 964 nM

Continuing:
Prompt line: Enter reported IC50 observed with ROCK2 (Homo sapiens (Human), UniProt O75116) for NC(=O)c1cccnc1O[C@H]1C[C@@]2(C[C@H](Nc3nnc(-c4ccc(F)c(F)c4)o3)C2)C1 (stereo partly drawn)
Response line: 326 nM

Reference source for all entries: patent US11299488B2
